- targetDesc: Phospholipase A2 group V (Homo sapiens, UniProt P39877)
- Sequence (P39877 whole entry): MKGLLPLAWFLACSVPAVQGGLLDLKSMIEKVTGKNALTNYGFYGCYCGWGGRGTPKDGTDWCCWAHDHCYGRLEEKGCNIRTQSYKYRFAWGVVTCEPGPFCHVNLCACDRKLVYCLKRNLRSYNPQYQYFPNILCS
Would you kindly list IC50 for each of these compounds?
Mention the unit after the number when you answer.

Query: Quick one: IC50 of CN(C)c1ccc(C2CC(c3cc4ccccc4o3)=NN2C(=O)Nc2ccc(Cl)cc2)c2ccccc12 (centres undefined) ?
Response: 22.2 µM

Query: Quick check: IC50 of COc1cc2ccccc2c(C2CC(c3cc4ccccc4o3)=NN2C(=O)Nc2ccc(Cl)cc2)c1OC (centres undefined) ?
Response: 8.46 µM

Query: # IC50 lookup, item COc1ccc2c(OC)ccc(/C=C/C(=O)c3cc4ccccc4o3)c2c1
Response: 27.8 µM

Query: For the compound COc1cc2ccccc2c(C2CC(c3cc4ccccc4o3)=NN2C(N)=S)c1OC (centres undefined) , what IC50 is on record?
Response: 9.17 µM

Query: Given the compound COc1cc2ccccc2c(C2CC(c3ccc4c(c3)OCCO4)=NN2C(N)=S)c1OC (centres undefined) , what is its reported IC50?
Response: 19.2 µM

Query: Consider the compound COc1cc2ccccc2c(/C=C/C(=O)c2cc3ccccc3o2)c1OC and give its measured IC50.
Response: 12.7 µM

Query: Could you share which IC50 value was measured for CN(C)c1ccc(C2CC(c3ccc4c(c3)OCCO4)=NN2C(=O)Nc2ccc(Cl)cc2)c2ccccc12 (centres undefined) ?
Response: 17.2 µM

Query: IC50 lookup needed for CN(C)c1ccc(/C=C/C(=O)c2ccc3c(c2)OCCO3)c2ccccc12 , thanks.
Response: 32.2 µM

Query: Quick one: IC50 of CN(C)c1ccc(C2CC(c3ccc4c(c3)OCCO4)=NN2C(N)=S)c2ccccc12 (centres undefined) ?
Response: 22.2 µM

---

- targetDesc: Phospholipase A2 group V (Homo sapiens, UniProt P39877)
- Sequence (P39877 whole entry): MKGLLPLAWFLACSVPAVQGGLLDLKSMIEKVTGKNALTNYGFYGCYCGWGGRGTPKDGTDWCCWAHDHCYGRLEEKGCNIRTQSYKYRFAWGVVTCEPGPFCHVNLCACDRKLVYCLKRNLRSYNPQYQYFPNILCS
- protocolDetails: sPLA2V Activity Assay
- cond: pH 7.5; 25 °C
propertyLabel: IC50 (µM)
Report the value in µM with no unit label.

Query: Report IC50 for COc1ccc2c(OC)ccc(C3CC(c4ccc5c(c4)OCCO5)=NN3C(N)=S)c2c1 (stereo unspecified) please.
Response: 7.12

Query: Param item = CN(C)c1ccc(C2CC(c3cc4ccccc4o3)=NN2C(N)=S)c2ccccc12 (stereo unspecified) ; retrieve measured IC50.
Response: 35.4

Query: For the compound shown here, COc1ccc2c(OC)ccc(C3CC(c4ccc5c(c4)OCCO5)=NN3C(=O)Nc3ccc(Cl)cc3)c2c1 (stereo unspecified) , give the reported IC50.
Response: 5.12

Query: Need IC50, item COc1ccc2c(OC)ccc(C3CC(c4cc5ccccc5o4)=NN3C(N)=S)c2c1 (stereo unspecified)
Response: 21.1

Query: Give its IC50 value. Item: COc1cc2ccccc2c(C2CC(c3ccc4c(c3)OCCO4)=NN2C(=O)Nc2ccc(Cl)cc2)c1OC (stereo unspecified)
Response: 17.3

Query: // returns reported IC50 for input COc1ccc2c(OC)ccc(C3CC(c4cc5ccccc5o4)=NN3C(=O)Nc3ccc(Cl)cc3)c2c1 (stereo unspecified)
Response: 14.5

Cited source for all entries: BindingDB's records for doi:10.1111/cbdd.12457
